Reference source for all entries: patent US11753363B2

Tested on: MCF-7 (human breast cancer cells)
protocol_summary: Inhibition of proliferation of tumor cell lines (MTT), MCF-7
Type: cell-based
test_settings: Homo sapiens, MCF7, MCF-7, 72 h, read-out: IC50 value of compound for inhibition of proliferation of tumor cell lines, MCF-7
YES if IC50 is below 10 µg/mL. NO if not; exact matches included in NO.

Reference set, count: 7
compound_structure	target_of_assay	class_assignment
C/C=C(\C)C(=O)O[C@H]1C(C)=C[C@]23C(=O)[C@@H](C=C(CO)[C@@H](O)[C@]12O)[C@@H]1C(C)(C)[C@]1(OC(=O)CCCCCCCCCCC)C[C@H]3C	MCF-7 (human breast cancer cells)	YES
CCCCCCCCCCCC(=O)O[C@@]12C[C@@H](C)[C@]34C=C(C)[C@H](O)[C@@]3(O)[C@H](O)C(COC(=O)CCC)=C[C@H](C4=O)[C@@H]1C2(C)C	MCF-7 (human breast cancer cells)	NO
CCCCCCCCCCCC(=O)O[C@@]12C[C@@H](C)[C@]34C=C(C)[C@H](O)[C@@]3(O)[C@H](O)C(COC(C)=O)=C[C@H](C4=O)[C@@H]1C2(C)C	MCF-7 (human breast cancer cells)	NO
C/C=C(/C)C(=O)O[C@H]1C(C)=C[C@]23C(=O)[C@@H](C=C(CO)[C@@H](O)[C@]12O)[C@@H]1C(C)(C)[C@]1(OC(=O)CCCCCCCCC)C[C@H]3C	MCF-7 (human breast cancer cells)	YES
CCCCCCCCCCCC(=O)O[C@@]12C[C@@H](C)[C@]34C=C(C)[C@H](OC(C)=O)[C@@]3(O)[C@H](O)C(CO)=C[C@H](C4=O)[C@@H]1C2(C)C	MCF-7 (human breast cancer cells)	NO
C/C=C(/C)C(=O)O[C@H]1C(C)=C[C@]23C(=O)[C@@H](C=C(CO)[C@@H](O)[C@]12O)[C@@H]1C(C)(C)[C@]1(OC(=O)CCC)C[C@H]3C	MCF-7 (human breast cancer cells)	NO
CCCCCCCCCCCC(=O)O[C@@]12C[C@@H](C)[C@]34C=C(C)[C@H](OC(=O)C(C)=C(C)C)[C@@]3(O)[C@H](O)C(CO)=C[C@H](C4=O)[C@@H]1C2(C)C	MCF-7 (human breast cancer cells)	YES

Please find the next compound below.
Determine whether this compound shows IC50 lower than 10 µg/mL (ties excluded): CCCCCCCCCCCC(=O)O[C@@]12C[C@@H](C)[C@]34C=C(C)[C@H](OC(=O)c5c(CC)noc5CC)[C@@]3(O)[C@H](O)C(CO)=C[C@H](C4=O)[C@@H]1C2(C)C
NO

----------
System: K562 (human leukemia cells)
protocol_summary: Inhibition of proliferation of tumor cell lines (MTT), K562
Type: cell-based
test_settings: Homo sapiens, K562, 72 h, read-out: IC50 value of compound for inhibition of proliferation of tumor cell lines, K562
result_type: IC50 (µg/mL)
Give bare numbers, in µg/mL.

molecule	result_type	obs_value
C/C=C(/C)C(=O)OCC1=C[C@@H]2C(=O)[C@]3(C=C(C)[C@H](O)[C@@]3(O)[C@@H]1O)[C@H](C)C[C@]1(OC(=O)CCCCCCCCCCC)[C@H]2C1(C)C [Compound 15b, 20-O-angeloyl-13-O-dodecanoyl-ingenol]	IC50	0.001

Look up IC50 for the entries below, preserving their order.
1. CCCCCCCCCCCC(=O)O[C@@]12C[C@@H](C)[C@]34C=C(C)[C@@H]5OC(C)(C)O[C@@]53[C@H](O)C(CO)=C[C@H](C4=O)[C@@H]1C2(C)C [Compound 2c, 13-O-dodecanoyl-ingenol 3,4-acetonide]
2. CCCCCCCCCCCC(=O)O[C@@]12C[C@@H](C)[C@]34C=C(C)[C@H](O)[C@@]3(O)[C@H](O)C(CO)=C[C@H](C4=O)[C@@H]1C2(C)C
3. CCCCCCCCCCCC(=O)O[C@@]12C[C@@H](C)[C@]34C=C(C)[C@H](OC(=O)C(C)=C(C)C)[C@@]3(O)[C@H](O)C(CO)=C[C@H](C4=O)[C@@H]1C2(C)C
4. C/C=C(/C)C(=O)O[C@H]1C(C)=C[C@]23C(=O)[C@@H](C=C(CO)[C@@H](O)[C@]12O)[C@@H]1C(C)(C)[C@]1(OC(=O)CCCCCCCCC)C[C@H]3C
5. C/C=C(\C)C(=O)O[C@H]1C(C)=C[C@]23C(=O)[C@@H](C=C(CO)[C@@H](O)[C@]12O)[C@@H]1C(C)(C)[C@]1(OC(=O)CCCCCCCCCCC)C[C@H]3C

1. 0.42
2. 5.51
3. 2.06
4. 2.13
5. 0.81
